Would you kindly list Emax for each of these molecules?
- System: c-myc in 22RV-1 cells
- experimentalProtocol: Human c-myc ELISA assay
- Type: cell-based
- details: Homo sapiens, 22Rv1, 18 h, read-out: Degradation of BRD4: Maximum inhibition (%) c-Myc ELISA in 22RV1 cells

Answered cases to consult:
Cc1ncsc1-c1ccc(CNC(=O)[C@@H]2C[C@@H](O)CN2C(=O)[C@@H](NC(=O)COCCCOCCCCOCCCOc2ccc(NC(=O)C[C@@H]3N=C(c4ccc(Cl)cc4)c4c(sc(C)c4C)-n4c(C)nnc43)cc2)C(C)(C)C)cc1
100%
Cc1ncsc1-c1ccc(CNC(=O)[C@@H]2C[C@@H](O)CN2C(=O)[C@H](c2cc(OCCCCCNC(=O)C[C@@H]3N=C(c4ccc(Cl)cc4)c4c(sc(C)c4C)-n4c(C)nnc43)no2)C(C)C)cc1
79.5%
Cc1ncsc1-c1ccc([C@H](C)NC(=O)[C@@H]2C[C@@H](O)CN2C(=O)[C@@H](NC(=O)COCCOCCCOc2ccc([C@@H](C)NC(=O)C[C@@H]3N=C(c4ccc(Cl)cc4)c4c(sc(C)c4C)-n4c(C)nnc43)cc2)C(C)(C)C)cc1
96%
Cc1ncsc1-c1ccc([C@H](C)NC(=O)[C@@H]2C[C@@H](O)CN2C(=O)[C@@H](NC(=O)CN2CCN(C3CC4(C3)CN(C(=O)C[C@@H]3N=C(c5ccc(Cl)cc5)c5c(sc(C)c5C)-n5c(C)nnc53)C4)CC2)C(C)(C)C)cc1
> 90%
Cc1ncsc1-c1ccc([C@H](C)NC(=O)[C@@H]2C[C@@H](O)CN2C(=O)[C@@H](NC(=O)COc2ccc(N3CC[C@H](NC(=O)C[C@@H]4N=C(c5ccc(Cl)cc5)c5c(sc(C)c5C)-n5c(C)nnc54)C3)nc2)C(C)(C)C)cc1
88.9%

Report Emax for every entry below.
1. Cc1sc2c(c1C)C(c1ccc(Cl)cc1)=N[C@@H](CC(=O)N[C@H]1C[C@@H](Oc3cc(-c4cnn([C@H](C(=O)N5C[C@H](O)C[C@H]5C(=O)N[C@@H](C)c5ccc(-n6ccnc6C)cc5)C(C)C)c4)ccn3)C1)c1nnc(C)n1-2
2. Cc1ncsc1-c1ccc(CNC(=O)[C@@H]2C[C@@H](O)CN2C(=O)[C@@H](NC(=O)CCc2cccc(OCCNC(=O)C[C@@H]3N=C(c4ccc(Cl)cc4)c4c(sc(C)c4C)-n4c(C)nnc43)c2)C(C)(C)C)cc1
3. Cc1ncsc1-c1ccc(CNC(=O)C2C[C@@H](O)CN2C(=O)[C@@H](NC(=O)COCCOCCOCCOCCOc2ccc3c(c2)c2c(C(N)=O)cc(-c4c(C)noc4C)cc2n3Cc2ccccc2)C(C)(C)C)cc1 (stereo partly drawn)
4. Cc1ncsc1-c1ccc(CNC(=O)[C@@H]2C[C@@H](O)CN2C(=O)[C@@H](NC(=O)COCCOCCNC(=O)C[C@@H]2N=C(c3ccc(Cl)cc3)c3c(sc(C)c3C)-n3c(C)nnc32)C(C)(C)C)cc1

["93.8%", "100%", "99.5%", "94%"]

----------
- Test system: c-myc in 22RV-1 cells
- experimentalProtocol: Human c-myc ELISA assay
- Format: cell-based
- details: Homo sapiens, 22Rv1, 18 h, read-out: Degradation of BRD4: Maximum inhibition (%) c-Myc ELISA in 22RV1 cells
parameter: Emax

CC(=O)N[C@H](C(=O)N1C[C@H](O)C[C@H]1C(=O)NCc1ccc(-c2scnc2C)cc1OCCCOc1ccc(C2=N[C@@H](CC(=O)Nc3ccccc3)c3nnc(C)n3-c3sc(C)c(C)c32)cc1)C(C)(C)C
65.5%
Cc1ncsc1-c1ccc([C@H](C)NC(=O)[C@@H]2C[C@@H](O)CN2C(=O)[C@@H](NC(=O)/C=C/c2cc(F)cc(O[C@H](C)CNC(=O)C[C@@H]3N=C(c4ccc(Cl)cc4)c4c(sc(C)c4C)-n4c(C)nnc43)c2)C(C)(C)C)cc1
94%
Cc1ncsc1-c1ccc(CNC(=O)[C@@H]2C[C@@H](O)CN2C(=O)[C@@H](NC(=O)COCCCOCCNC(=O)C[C@@H]2N=C(c3ccc(Cl)cc3)c3c(sc(C)c3C)-n3c(C)nnc32)C(C)(C)C)cc1
99%
Cc1ncsc1-c1ccc([C@H](C)NC(=O)[C@@H]2C[C@@H](O)CN2C(=O)[C@@H](NC(=O)c2cc3cc(O[C@H]4C[C@@H](NC(=O)C[C@@H]5N=C(c6ccc(Cl)cc6)c6c(sc(C)c6C)-n6c(C)nnc65)C4)ccc3o2)C(C)C)cc1
98%
Cc1ncoc1-c1ccc([C@H](C)NC(=O)[C@@H]2C[C@@H](O)CN2C(=O)[C@@H](C(C)C)n2cc(-c3ccnc(O[C@H]4C[C@@H](NC(=O)C[C@@H]5N=C(c6ccc(Cl)cc6)c6c(sc(C)c6C)-n6c(C)nnc65)C4)c3)cn2)cc1
36%

For the 3 molecules below, give their Emax values.
1. Cc1ncsc1-c1ccc([C@@H](CO)NC(=O)[C@@H]2C[C@@H](O)CN2C(=O)[C@@H](NC(=O)CN2CCC(O[C@H]3C[C@H](NC(=O)C[C@@H]4N=C(c5ccc(Cl)cc5)c5c(sc(C)c5C)-n5c(C)nnc54)C3)CC2)C(C)(C)C)cc1
2. Cc1ncsc1-c1ccc(CNC(=O)[C@@H]2C[C@@H](O)CC2C(=O)[C@@H](NC(=O)CO[C@H]2CCN(c3ccc([C@@H](C)NC(=O)C[C@@H]4N=C(c5ccc(Cl)cc5)c5c(sc(C)c5C)-n5c(C)nnc54)cc3)C2)C(C)(C)C)cc1 (some centres unmarked)
3. Cc1ncsc1-c1ccc([C@H](C)NC(=O)[C@@H]2C[C@@H](O)CN2C(=O)[C@@H](NC(=O)CN2CCC(N3CCN(C(=O)C[C@@H]4N=C(c5ccc(Cl)cc5)c5c(sc(C)c5C)-n5c(C)nnc54)CC3)CC2)C(C)(C)C)cc1

< 20%
89.4%
97%

These measurements were taken from patent US11554171B2.
